# measurement_description: In vitro potassium channel opening activity in A10 (smooth muscle) cells
# Type: functional, cell-based, Rattus norvegicus

[
  {
    "smiles_structure": "CCCNC1=NC(=O)[C@@]2(CC(C)(C)Oc3ccc(Br)cc32)N1",
    "EC50 / nM": 4
  }
]
